Assay Overview: Oral pharmacokinetics (plasma, brain, CSF)
Type: in vivo
Condition Set: Sprague Dawley, rat, plasma, po, 10 mg/kg, Sprague Dawley rats, per os
Reported Endpoint: bioavailability (%)
The answer is to be given in %; state only the numeric part.

Molecule	Units Text	bioavailability
CC(C)C(=O)N1C2(CCC13CNC3=O)CNC2=O (single isomer, unassigned)	%	17

Problem: // query bioavailability value for entry CC(C)(C)OC(=O)N1C(C(N)=O)CCC12CN(OCc1ccccc1)C2=O (single isomer, unassigned)
Result: 18

Problem: Dear colleague, I am looking for the recorded bioavailability of the following molecule: C[C@@H](O)[C@@H](C(N)=O)N1CC2(CCC3(CN([C@H](C(N)=O)[C@@H](C)O)C3=O)N2C(=O)OC(C)(C)C)C1=O (stereo partly drawn)
Result: 2

Problem: Query (molecule): C[C@@H](O)[C@H](NC(=O)C1CCC2(CNC2=O)N1Cc1ccccc1)C(N)=O (single isomer, unassigned) ; field requested: bioavailability
Result: 2

Problem: Given CC(C)C(=O)N1C(C(=O)N[C@H](C(N)=O)[C@@H](C)O)CCC12CNC2=O (single isomer, unassigned) , state its recorded bioavailability.
Result: 3

Problem: Fill in: bioavailability of CC(=O)N1C(C(=O)N[C@H](C(N)=O)[C@@H](C)O)CCC12CNC2=O (stereo partly drawn) is ___
Result: 6

====

Listed next: entries and their corresponding Plasma (Human): percent of compound remaining after 60 minutes.
Assay Overview: Plasma stability (Human)
Assay type: in vitro ADME
The reply should contain only the number, in %.

Problem: # Plasma (Human): percent of compound remaining after 60 minutes lookup, item CC(C)C(=O)N1C(C(=O)N[C@H](C(N)=O)[C@@H](C)O)CCC12CNC2=O (single isomer, unassigned)
Result: 100

Problem: # lookup: Plasma (Human): percent of compound remaining after 60 minutes of CC(C)C(=O)N1C2(CCC13CNC3=O)CNC2=O (single isomer, unassigned)
Result: 95

Problem: Give its Plasma (Human): percent of compound remaining after 60 minutes value. Item: C[C@@H](O)[C@@H](C(N)=O)N1CC2(CCC3(CN([C@H](C(N)=O)[C@@H](C)O)C3=O)N2C(=O)OC(C)(C)C)C1=O (some centres unmarked)
Result: 81

Problem: Fill in: Plasma (Human): percent of compound remaining after 60 minutes of C[C@@H](O)[C@H](NC(=O)C1CCC2(CNC2=O)N1)C(N)=O (single isomer, unassigned) [AQ-2] is ___
Result: 100

Problem: // returns reported Plasma (Human): percent of compound remaining after 60 minutes for input CN1C2(CCC13CNC3=O)CNC2=O (single isomer, unassigned)
Result: 86

Problem: Recorded Plasma (Human): percent of compound remaining after 60 minutes of C[C@@H](O)[C@H](NC(=O)C1CCC2(CNC2=O)N1Cc1ccccc1)C(N)=O (single isomer, unassigned) [AN] , please.
Result: 88

Problem: Would you kindly share the measured Plasma (Human): percent of compound remaining after 60 minutes for CC(C)(C)OC(=O)N1CC2(CN(OCc3ccccc3)C2=O)CC12CN(OCc1ccccc1)C2=O (single isomer, unassigned) ?
Result: 90

Problem: Value lookup for Plasma (Human): percent of compound remaining after 60 minutes; key = O=C1NCC12CCC1(CNC1=O)N2Cc1ccccc1 (single isomer, unassigned) [AC-1]
Result: 100
